This section lists IC50 readings for melatonin ML1A receptor (Homo sapiens, UniProt P48039).

Data request: Query for melatonin ML1A receptor (Homo sapiens, UniProt P48039): what IC50 does the record show for CCC(=O)NCC1CC12c1cc(F)ccc1-c1ccc(OC)cc12 (stereo not shown) [Example 12] ?
Data returned: < 10 nM

Data request: Give IC50 (melatonin ML1A receptor (Homo sapiens, UniProt P48039)) of the following compound: CCC(=O)NCC1CC12c1cc(F)ccc1-c1ccc(OC)cc12 (stereo not shown) [Example 13]
Data returned: < 10 nM

Data request: What reported IC50 corresponds to COc1ccc2c(c1)C1(CC1CNC(=O)C(C)(C)C)c1cc(OC)ccc1-2 (stereo not shown) on melatonin ML1A receptor (Homo sapiens, UniProt P48039)?
Data returned: 100 to 250 nM

Data request: Lab note: need IC50 with melatonin ML1A receptor (Homo sapiens, UniProt P48039) for entry CCC(=O)NCC1CC12c1cc(OC)ccc1-c1ccc(OC)cc12 (single isomer, unassigned; (+)) , please look it up.
Sequence (P48039 whole entry): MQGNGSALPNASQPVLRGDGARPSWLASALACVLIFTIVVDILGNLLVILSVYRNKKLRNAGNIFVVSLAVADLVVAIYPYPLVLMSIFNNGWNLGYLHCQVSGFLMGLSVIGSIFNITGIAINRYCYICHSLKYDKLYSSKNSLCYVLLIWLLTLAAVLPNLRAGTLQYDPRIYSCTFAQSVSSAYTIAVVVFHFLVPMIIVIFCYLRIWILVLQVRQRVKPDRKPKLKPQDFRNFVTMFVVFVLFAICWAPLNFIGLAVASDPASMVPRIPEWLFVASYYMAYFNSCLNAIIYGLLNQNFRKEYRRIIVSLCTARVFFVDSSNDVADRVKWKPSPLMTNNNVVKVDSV
Data returned: < 10 nM

Source: patent US6028112A
